System: UO-31 renal
Test: NCI tumour cell line growth inhibition, 48 h
RESULT_TYPE: TGI

Worked cases, answers included:
{"COMPOUND": "CCOC1OC(C)(C=C(C#N)C#N)CCC1C (configuration not stated)", "EXPERIMENTAL_SYSTEM": "UO-31 renal", "TGI": "97.7 µM"}
{"COMPOUND": "Nc1ncnc2c1ncn2C1C(O)C=C(CO)C1O (configuration not stated)", "EXPERIMENTAL_SYSTEM": "UO-31 renal", "TGI": "> 625 µM"}
{"COMPOUND": "CN(CC(=O)O)c1ncc2c(n1)-c1ccccc1CC2", "EXPERIMENTAL_SYSTEM": "UO-31 renal", "TGI": "> 100 µM"}
{"COMPOUND": "c1ccc(CN2CCC(CNc3ncnc4ccccc34)C2)cc1 (configuration not stated)", "EXPERIMENTAL_SYSTEM": "UO-31 renal", "TGI": "> 100 µM"}
{"COMPOUND": "COc1cc(-c2ccc[nH]2)[nH]c1/C=C1\\N=C(C)C(C(=O)NC(C)C)=C1C", "EXPERIMENTAL_SYSTEM": "UO-31 renal", "TGI": "11 µM"}
{"COMPOUND": "CC1(O)CC23CC(O)C4(O)C(CC(O)C4(C)C)C(C)(O)C2CCC1C3O (configuration not stated)", "EXPERIMENTAL_SYSTEM": "UO-31 renal", "TGI": "> 100 µM"}

Item Nc1c([N+](=O)[O-])ncn1C1OC(CO)C(O)C1O (configuration not stated) with UO-31 renal - TGI?
> 100 µM

Item `CCOc1ccc(N=Nc2c(-c3ccccc3)nn(C(=O)CC(=O)Nc3ccccc3Cl)c2-c2ccccc2)cc1` with UO-31 renal - TGI?
> 100 µM

Item O=C(Nc1c(Cl)cc([N+](=O)[O-])cc1Cl)C(=O)C(C(=O)c1ccncc1)C1OC(=O)c2ccccc21 (configuration not stated) with UO-31 renal - TGI?
> 100 µM

Item `CC(C)(C)OC(=O)CC(S(=O)(=O)c1ccccc1)S(=O)(=O)c1ccccc1` with UO-31 renal - TGI?
10.4 µM

Item CC1(c2ccc(Cl)cc2)c2ccccc2C(=O)N1CCCN1C(=O)c2ccccc2C1=O (configuration not stated) with UO-31 renal - TGI?
> 100 µM

Item `CC(C)(C)C(=O)C(N)C(=O)C(C)(C)C` with UO-31 renal - TGI?
> 100 µM

Item `C[C@]12CC[C@H]3[C@@H](CCC4=C/C(=N/OCCN5CCCCC5)CC[C@@]43C)[C@@H]1CC[C@@H]2O` with UO-31 renal - TGI?
24.7 µM

Item CNC1CC(n2cc(C)c(=O)[nH]c2=O)OC1CO (configuration not stated) with UO-31 renal - TGI?
> 100 µM

Item O=C(O)C1C2OC(C(Br)C2Br)C1C(=O)O (configuration not stated) with UO-31 renal - TGI?
> 100 µM
